# ASSAYED_TARGET: C3 (complement C3), RED-NHS labelled
# Construct: human purified C3 equally possible
# PROTOCOL_TEXT: microscale thermophoresis (Monolith NT.[…])
# MEASUREMENT_SETUP: 25 °C, PBS with 5% DMSO compound stocks, Tan I up to 25 µM
MEASURE_NAME: pKd
Answers are plain numbers, as −log10 of the molar value.

Would you kindly share the measured pKd for Cc1coc2c1C(=O)C(=O)c1c-2ccc2c(C)cccc12 [Tan I] ? 5.43

Value source: paper PMC12374583
